Would you kindly list TGI for each of these compounds?
# Test system: SK-MEL-28 melanoma
# assay-name: NCI tumour cell line growth inhibition, 48 h

[[record]]
compound = "CCOC(=O)c1cc(OC(=O)CC)c2c(OC)ccc(OC)c2c1"
measured_quantity = "TGI"
test_value = "> 100 µM"

[[record]]
compound = "C[C@@H]1OCC2(CCN(c3cnc(Sc4ccnc(N)c4Cl)c(N)n3)CC2)[C@@H]1N"
measured_quantity = "TGI"
test_value = "> 100 µM"

[[record]]
compound = "CCOC(=O)c1cc(C#N)[nH]c1-c1ccsc1"
measured_quantity = "TGI"
test_value = "> 100 µM"

[[record]]
compound = "Fc1cccc(-c2[nH]nc3nc(Nc4cccnc4)sc23)c1"
measured_quantity = "TGI"
test_value = "> 100 µM"

[[record]]
compound = "Cc1cc2nc(C(Cl)Cl)nc(-c3ccccc3)n2n1"
measured_quantity = "TGI"
test_value = "13.1 µM"

[[record]]
compound = "O=Nc1c(NO)ccc2nn(-c3ccccc3)nc12"
measured_quantity = "TGI"
test_value = "43.3 µM"

[[record]]
compound = "Cn1c(=O)c2c(nc3n(C)c(=O)c4ccccc4n23)n(C)c1=O"
measured_quantity = "TGI"
test_value = "> 100 µM"

[[record]]
compound = "CC(C)N1[C@@H]2CCCC[C@H]2N(C(C)C)P1(=O)C(=O)/C=C/c1ccccc1"
measured_quantity = "TGI"
test_value = "8.87 µM"

[[record]]
compound = "N#CSc1ccc(S(N)(=O)=O)cc1"
measured_quantity = "TGI"
test_value = "> 100 µM"

[[record]]
compound = "CC(=O)C1=C(O)CCC1=O"
measured_quantity = "TGI"
test_value = "> 100 µM"


Here are 3 compounds. What values of TGI were reported for them?
1. CCN(CC)CCCCC1CCN(CC(=O)N2c3cc(Cl)ccc3NC(=O)CC2C)CC1 (stereo not drawn)
2. FC(F)(F)c1cccc(C2SCc3nc4ccccc4n32)c1 (stereo not drawn)
3. O=C1OC(CS(=O)(=O)c2ccccc2)CC1O (stereo not drawn)

OUT:
> 100 µM
> 100 µM
> 100 µM
